Sourced from patent US11220524B2

Target: PRMT5/MEP50 complex (Homo sapiens (Human), UniProt O14744)
Sequence (O14744 whole entry): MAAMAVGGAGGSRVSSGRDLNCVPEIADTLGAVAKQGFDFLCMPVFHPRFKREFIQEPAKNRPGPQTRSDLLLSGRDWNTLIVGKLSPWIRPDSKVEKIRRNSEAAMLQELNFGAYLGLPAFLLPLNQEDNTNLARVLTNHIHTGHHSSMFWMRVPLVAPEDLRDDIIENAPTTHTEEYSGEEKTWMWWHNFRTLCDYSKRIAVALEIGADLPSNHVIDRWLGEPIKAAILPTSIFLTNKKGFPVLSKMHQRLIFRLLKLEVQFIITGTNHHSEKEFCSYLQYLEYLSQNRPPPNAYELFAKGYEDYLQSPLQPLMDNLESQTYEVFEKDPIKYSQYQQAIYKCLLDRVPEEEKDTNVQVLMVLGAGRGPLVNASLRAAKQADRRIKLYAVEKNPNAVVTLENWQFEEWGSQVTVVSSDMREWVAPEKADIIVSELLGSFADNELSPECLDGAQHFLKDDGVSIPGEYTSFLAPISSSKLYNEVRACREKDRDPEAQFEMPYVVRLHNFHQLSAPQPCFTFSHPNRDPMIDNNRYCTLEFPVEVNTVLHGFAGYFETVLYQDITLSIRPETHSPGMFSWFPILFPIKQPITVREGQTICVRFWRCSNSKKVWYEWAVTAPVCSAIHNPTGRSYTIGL
Sequence (Q9BQA1 whole entry partner): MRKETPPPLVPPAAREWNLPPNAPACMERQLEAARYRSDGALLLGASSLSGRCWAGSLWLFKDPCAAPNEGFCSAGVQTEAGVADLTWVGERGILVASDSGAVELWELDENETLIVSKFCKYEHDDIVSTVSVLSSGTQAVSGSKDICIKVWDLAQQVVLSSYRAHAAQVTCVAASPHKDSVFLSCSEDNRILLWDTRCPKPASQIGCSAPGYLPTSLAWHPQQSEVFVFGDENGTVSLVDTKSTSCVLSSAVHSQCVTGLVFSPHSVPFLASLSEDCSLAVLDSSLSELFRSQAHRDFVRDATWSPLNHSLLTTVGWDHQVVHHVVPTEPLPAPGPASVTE
Test: Biochemical assay: PRMT5/MEP50 methylation of histone H2A with 3H-SAM, filter plate scintillation
Conditions: histone H2A 5 μM, SAM 1 μM, enzyme 5 nM; read-out: PRMT5/MEP50 IC50
Description: Biochemical Assay Protocol Compounds were solubilized, and 3-fold diluted in 100% DMSO. […] Standard reactions were performed in a total volume of […] assay buffer, with histone H2A (5 μM final) as substrate. […] Each reaction was spotted onto filter plate (MultiScreen FB Filter Plate, Millipore), and washed 5 times with PBS buffer, Scintillation fluid was added to the filter plate and read in a scintillation counter. […]
pIC50: −log10 of the molar value.
PROPERTY LABEL: pIC50

Here are 3 compounds together with their reported answers.
ENTRY SMILES	pIC50
CO/N=c1\[nH]cnc2c1ncn2[C@@H]1O[C@H]([C@](C)(O)c2ccc(Cl)c(C)c2)[C@@H](O)[C@H]1O	5.79
CO/N=c1\[nH]cnc2c1ncn2[C@@H]1O[C@H]([C@](C)(O)c2ccc(Cl)c(Cl)c2)[C@@H](O)[C@H]1O	5.71
N/N=c1/nc[nH]c2c1ccn2[C@@H]1O[C@H]([C@H](O)c2ccc(Cl)cc2)[C@@H](O)[C@H]1O	9.22

I = CN/N=c1/nc[nH]c2c1ncn2[C@@H]1O[C@H]([C@H](O)c2ccc(Cl)cc2)[C@@H](O)[C@H]1O
II = CCO/N=c1\nc[nH]c2c1ccn2[C@@H]1O[C@H]([C@H](O)c2ccc(Cl)cc2)[C@@H](O)[C@H]1O
For the pair I and II , which entry has the numerically smaller recorded pIC50? Your answer should be the label of the entry you select.
I

1 = O[C@@H]1[C@H](O)[C@@H]([C@H](O)c2ccc(Cl)c(Cl)c2)O[C@H]1n1ccc2/c(=N/OCC(F)F)nc[nH]c21
2 = O/N=c1/nc[nH]c2c1ccn2[C@@H]1O[C@H]([C@H](O)c2ccc(Cl)c(F)c2)[C@@H](O)[C@H]1O
3 = CO/N=c1/nc[nH]c2c1ccn2[C@@H]1O[C@H]([C@H](O)c2ccc(Cl)c(F)c2)[C@@H](O)[C@H]1O
4 = CN/N=c1\nc[nH]c2c1ccn2[C@@H]1O[C@H]([C@H](O)c2ccc(Cl)c(Cl)c2)[C@@H](O)[C@H]1O
5 = CCO/N=c1/[nH]cnc2c1ccn2[C@@H]1O[C@H]([C@H](O)c2ccc(Cl)c(Cl)c2)[C@@H](O)[C@H]1O
Given 5 compounds, produce a descending ranking by pIC50. Use the labels to give the ranking in the order requested.
4, 2, 5, 3, 1
(4: 9.52, 2: 9.15, 5: 8.41, 3: 8.07, 1: 6.95)

A = N/N=c1\nc[nH]c2c1ccn2[C@@H]1O[C@H]([C@H](O)c2ccc(C(F)(F)F)cc2)[C@@H](O)[C@H]1O
B = CCO/N=c1\[nH]cnc2c1ncn2[C@@H]1O[C@H]([C@](C)(O)c2ccc(Cl)c(Cl)c2)[C@@H](O)[C@H]1O
C = N/N=c1/nc[nH]c2c1c(F)cn2[C@@H]1O[C@H]([C@H](O)c2ccc(Cl)cc2)[C@@H](O)[C@H]1O
Given 3 compounds, produce a descending ranking by pIC50. Use the labels to give the ranking in the order requested.
A, C, B

A = CO/N=c1/nc[nH]c2c1ccn2[C@@H]1O[C@H]([C@H](O)c2ccc(C(F)(F)F)c(F)c2)[C@@H](O)[C@H]1O
B = O/N=c1/nc[nH]c2c1ccn2[C@@H]1O[C@H]([C@H](O)c2ccc(F)c(Cl)c2)[C@@H](O)[C@H]1O
For the pair A and B , which entry has the numerically smaller recorded pIC50? Your answer should be the label of the entry you select.
A
(A: 8.51, B: 8.72)
